Origin of the recorded values: paper PMC7177849

Target: AhR (Homo sapiens, UniProt P35869)
Sequence (P35869 11-848): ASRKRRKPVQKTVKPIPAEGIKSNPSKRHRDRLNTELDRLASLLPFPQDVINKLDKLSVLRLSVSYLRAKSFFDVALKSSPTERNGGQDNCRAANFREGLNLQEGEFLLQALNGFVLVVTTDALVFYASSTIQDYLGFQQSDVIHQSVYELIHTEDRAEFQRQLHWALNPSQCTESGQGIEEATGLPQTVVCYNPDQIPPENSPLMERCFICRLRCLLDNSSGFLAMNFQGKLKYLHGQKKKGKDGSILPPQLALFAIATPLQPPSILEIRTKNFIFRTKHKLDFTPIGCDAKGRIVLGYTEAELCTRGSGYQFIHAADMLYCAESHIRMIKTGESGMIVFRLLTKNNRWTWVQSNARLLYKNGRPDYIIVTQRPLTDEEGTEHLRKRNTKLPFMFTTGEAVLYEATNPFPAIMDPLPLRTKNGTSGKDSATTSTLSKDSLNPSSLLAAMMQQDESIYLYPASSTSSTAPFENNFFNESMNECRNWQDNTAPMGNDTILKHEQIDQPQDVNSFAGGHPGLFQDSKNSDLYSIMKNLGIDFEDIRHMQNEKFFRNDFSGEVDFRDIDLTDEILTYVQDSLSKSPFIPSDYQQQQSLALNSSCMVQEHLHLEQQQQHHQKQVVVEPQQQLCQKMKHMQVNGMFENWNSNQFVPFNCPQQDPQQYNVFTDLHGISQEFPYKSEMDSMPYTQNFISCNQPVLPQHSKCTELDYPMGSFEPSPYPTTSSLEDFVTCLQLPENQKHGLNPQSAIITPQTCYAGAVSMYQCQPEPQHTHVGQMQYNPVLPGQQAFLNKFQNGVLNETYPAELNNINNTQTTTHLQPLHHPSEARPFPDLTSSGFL
Assay: Immunofluorescence detection of nuclear translocation of the AhR in LS180 cells
Assay type: cell-based
Parameters: 0.1% V/V), TCDD (10 nM), and test MICT; host or cells: LS180 cells
Conditions: mean ± SD, n = 3, relative to TCDD-treated cells; LS180, 90 min
Please note: Criterion met applies when Ø AhR positive nuclei is 80% or greater, and Criterion not met applies otherwise.

• Cc1c[nH]c2ccccc12 = Criterion met
• NC(=O)Cc1c[nH]c2ccccc12 [IAD, indole-3-acetamide] = Criterion met
• O=C(O)/C=C/c1c[nH]c2ccccc12 [IAC, indole-3-acrylate] = Criterion met
• NCCc1c[nH]c2ccccc12 = Criterion met
• O=C(O)C(=O)Cc1c[nH]c2ccccc12 [IPY, indole-3-pyruvate] = Criterion not met

###

Target: AhR (Homo sapiens, UniProt P35869)
Assay: Immunofluorescence detection of nuclear translocation of the AhR in LS180 cells
Assay type: cell-based
Design: 0.1% V/V), TCDD (10 nM), and test MICT; host or cells: LS180 cells
Settings: LS180, 90 min, exp 3; TCDD 10 nM, Indole 1 mM, IAC 100 µM, others 200 µM
Measured % positive AhR nuclei, listed per entry.
PARAMETER: % positive AhR nuclei

* O=C(O)/C=C/c1c[nH]c2ccccc12 [IAC, indole-3-acrylate] | 73%
* Clc1cc2c(cc1Cl)Oc1cc(Cl)c(Cl)cc1O2 [TCDD, 2,3,7,8-tetrachlorodibenzo-p-dioxin, reference compound] | 61%
* NC(=O)Cc1c[nH]c2ccccc12 [IAD, indole-3-acetamide] | 42%
* Cc1c[nH]c2ccccc12 | 62%
* NCCc1c[nH]c2ccccc12 | 66%
* O=C(O)C(=O)Cc1c[nH]c2ccccc12 [IPY, indole-3-pyruvate] | 38%

###

Biological target: AhR (Homo sapiens, UniProt P35869)
Test: Reporter gene assay in AZ-AHR cells, antagonist analyses against TCDD, BaP, FICZ
PARAMETER: IC50

• O=Cc1c[nH]c2ccccc12 = 100 to 200 µM

###

Target: AhR (Homo sapiens, UniProt P35869)
Experiment: Reporter gene assay in AZ-AHR cells, agonist analyses (luciferase)
Conditions: EC50, AZ-AHR cells, 24 h, agonist analyses
pEC50: −log10 of the molar value.
PARAMETER: pEC50

• OCCc1c[nH]c2ccccc12 [IET, indole-3-ethanol] = 4.01
• NCCc1c[nH]c2ccccc12 [TA, tryptamine] = 4.08
• O=C(O)C(=O)Cc1c[nH]c2ccccc12 [IPY, indole-3-pyruvate] = 4.01
• O=C(O)C(O)Cc1c[nH]c2ccccc12 (centres unmarked) [ILA, indole-3-lactate] = 4.09
• NC(=O)Cc1c[nH]c2ccccc12 [IAD, indole-3-acetamide] = 4.00
• Cc1c[nH]c2ccccc12 [3MI, skatole] = 3.99
• O=C(O)/C=C/c1c[nH]c2ccccc12 [IAC, indole-3-acrylate] = 4.37
• O=C(O)CCc1c[nH]c2ccccc12 [IPA, indole-3-propionate] = 4.01

###

# key: entry, value: % relative AhR nuclei
Molecular target: AhR (Homo sapiens, UniProt P35869)
Test: Immunofluorescence detection of nuclear translocation of the AhR in LS180 cells
Assay type: cell-based
Parameters: 0.1% V/V), TCDD (10 nM), and test MICT; host or cells: LS180 cells
Settings: relative to TCDD-treated cells; LS180, 90 min, exp 3; same concentrations
PARAMETER: % relative AhR nuclei (%)

- Cc1c[nH]c2ccccc12 [3MI, skatole]: 102
- NC(=O)Cc1c[nH]c2ccccc12 [IAD, indole-3-acetamide]: 69
- O=C(O)/C=C/c1c[nH]c2ccccc12 [IAC, indole-3-acrylate]: 120
- NCCc1c[nH]c2ccccc12 [TA, tryptamine]: 108
- O=C(O)C(=O)Cc1c[nH]c2ccccc12 [IPY, indole-3-pyruvate]: 62

###

Tested on: CYP1A1 mRNA
Experiment: CYP1A1 mRNA (qRT-PCR) in wild-type and AhR-knockout HT-29 cells
Format: cell-based, human
Conditions: colon HT-29 cells, wild-type, 24 h
PARAMETER: induction of CYP1A1 mRNA

• NC(=O)Cc1c[nH]c2ccccc12 [IAD, indole-3-acetamide] = strong induction
• O=C(O)/C=C/c1c[nH]c2ccccc12 [IAC, indole-3-acrylate] = strong induction
• O=C(O)C(=O)Cc1c[nH]c2ccccc12 [IPY, indole-3-pyruvate] = strong induction
• NCCc1c[nH]c2ccccc12 = weaker inducers
• Cc1c[nH]c2ccccc12 = weaker inducers
